Data origin: patent US20110217237A1

Target: human DLL4, full length, on cells (human, UniProt Q9NR61 27-685)
Sequence (Q9NR61 27-685 limits assumed): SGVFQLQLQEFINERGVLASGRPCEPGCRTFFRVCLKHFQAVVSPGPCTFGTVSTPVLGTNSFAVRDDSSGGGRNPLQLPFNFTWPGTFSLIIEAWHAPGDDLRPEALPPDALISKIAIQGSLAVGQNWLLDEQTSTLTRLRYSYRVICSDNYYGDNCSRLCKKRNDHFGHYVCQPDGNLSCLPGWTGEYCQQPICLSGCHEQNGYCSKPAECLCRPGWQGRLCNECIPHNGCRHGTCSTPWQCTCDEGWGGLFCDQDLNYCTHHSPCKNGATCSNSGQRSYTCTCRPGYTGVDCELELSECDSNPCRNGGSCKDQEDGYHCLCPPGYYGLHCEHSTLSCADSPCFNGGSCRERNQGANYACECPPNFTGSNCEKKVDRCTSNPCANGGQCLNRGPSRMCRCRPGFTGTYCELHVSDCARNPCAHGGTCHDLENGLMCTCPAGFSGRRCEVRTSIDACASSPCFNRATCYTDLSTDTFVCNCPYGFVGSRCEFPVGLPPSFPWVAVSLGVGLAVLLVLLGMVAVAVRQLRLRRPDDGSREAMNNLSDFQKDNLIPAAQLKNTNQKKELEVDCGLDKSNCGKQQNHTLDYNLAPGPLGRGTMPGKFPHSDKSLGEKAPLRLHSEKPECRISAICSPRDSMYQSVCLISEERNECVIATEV
Experiment: cell-based or functional assay
Assay metric: Inhibition of Notch Activation via DLL4 cells, Notch reporter assay (nM)
Your answer is read as nM, so omit the unit and give the number.

Please review the following examples before continuing.
h1A11.E12 (antibody, V domains shown, also called h1A11.E12 VH / h1A11.E12 VL) VH: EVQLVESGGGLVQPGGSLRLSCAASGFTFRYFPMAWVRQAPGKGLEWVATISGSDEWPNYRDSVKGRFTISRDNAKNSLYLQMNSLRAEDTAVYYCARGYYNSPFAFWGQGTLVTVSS VL: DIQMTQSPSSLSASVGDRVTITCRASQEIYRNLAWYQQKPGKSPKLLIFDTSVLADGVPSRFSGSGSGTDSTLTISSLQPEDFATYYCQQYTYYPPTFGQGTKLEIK ... 0.208
h1A11.H2 (antibody, V domains shown, also called h1A11.H2 VH / h1A11.E12 VL) VH: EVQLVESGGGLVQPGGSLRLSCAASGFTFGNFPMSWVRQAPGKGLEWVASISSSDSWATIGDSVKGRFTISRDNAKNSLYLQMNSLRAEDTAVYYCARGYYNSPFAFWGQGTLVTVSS VL: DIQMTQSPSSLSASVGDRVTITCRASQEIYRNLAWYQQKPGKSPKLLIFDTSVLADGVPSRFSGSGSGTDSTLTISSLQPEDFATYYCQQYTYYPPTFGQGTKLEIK ... 0.856
h1A11.A7 (antibody, V domains shown, also called h1A11VH.1 / h1A11.A7 VL) VH: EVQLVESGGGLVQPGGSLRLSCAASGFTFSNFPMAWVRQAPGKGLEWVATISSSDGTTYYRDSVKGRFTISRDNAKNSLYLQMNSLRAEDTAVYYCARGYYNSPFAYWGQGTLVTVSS VL: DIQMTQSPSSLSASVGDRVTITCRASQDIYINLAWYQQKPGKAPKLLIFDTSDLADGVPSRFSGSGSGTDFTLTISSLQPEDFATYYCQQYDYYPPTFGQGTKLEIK ... 2.92
h1A11.B4 (antibody, V domains shown, also called h1A11VH.1 / h1A11.B4 VL) VH: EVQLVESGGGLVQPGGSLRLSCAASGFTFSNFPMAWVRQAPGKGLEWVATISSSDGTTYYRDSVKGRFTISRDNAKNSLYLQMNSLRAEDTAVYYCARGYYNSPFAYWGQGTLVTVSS VL: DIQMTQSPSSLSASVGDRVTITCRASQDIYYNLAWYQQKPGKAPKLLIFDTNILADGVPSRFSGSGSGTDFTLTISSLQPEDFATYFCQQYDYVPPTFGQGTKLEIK ... 3.28

Now consider the entry below.
What Inhibition of Notch Activation via DLL4 cells, Notch reporter assay value was documented for this binder, h1A11.A12 (antibody, V domains shown, also called h1A11VH.1 / h1A11.A12 VL) VH: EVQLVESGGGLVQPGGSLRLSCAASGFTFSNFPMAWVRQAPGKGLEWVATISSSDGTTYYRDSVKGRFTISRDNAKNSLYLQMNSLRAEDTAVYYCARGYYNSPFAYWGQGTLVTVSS VL: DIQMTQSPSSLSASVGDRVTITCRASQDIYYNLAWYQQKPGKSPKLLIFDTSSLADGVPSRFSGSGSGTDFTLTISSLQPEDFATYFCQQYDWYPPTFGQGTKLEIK ? 1.66
